Experimental Target: T1, LTα3 (soluble homotrimer) (UniProt P01374 35-205)
T1 construct: Coated on ELISA plates at 1 or 5 ug/ml; also called LTa3
T1 sequence (looked up): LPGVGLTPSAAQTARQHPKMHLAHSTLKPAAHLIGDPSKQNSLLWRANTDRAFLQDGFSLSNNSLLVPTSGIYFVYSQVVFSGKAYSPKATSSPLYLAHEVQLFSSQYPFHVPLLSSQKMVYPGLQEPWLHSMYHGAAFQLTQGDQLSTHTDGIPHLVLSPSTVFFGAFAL
Assay Remarks: ELISA on plate-coated LTα3 (1 or 5 ug/ml)
Measured Endpoint: binding result

Binder	Measured Endpoint	Endpoint Result
9B4 (antibody, V domains shown, Murine monoclonal antibody, kappa light chain; also called LT 9B4; LT9B4) VH: QVTLKESGPGILQPSQTLSLTCSFSGFSLSTSGMGVSWIRQPSGKGLEWLAHIYWDDDKRYNPSLRSRLTISKDTSRNQVFLKITSVDTADTATYYCARREGYYGSSFDFDVWGAGTTVTVSS VL: QIVLSQSPAILSASPGEKVTMTCRASSSVSYMIWYQQKPGSSPKPWIYATSSLASGVPTRFSGSGSGTSYSLTISRVEAADAATYYCQQWSYNPLTFGAGTKLELK	binding result	no binding
LT107 (P5C4.1) (antibody, V domains shown, Murine monoclonal antibody, kappa light chain; also called mAb LT107) VH: QVQLKQSGPGLVQPSQNLSITCTVSGFSLTNYGIHWIRQPPGKGLEWLGVIWSGGSTDHNAAFISRLSISKDNSKSQVFFTMNSLEVDDTAIYYCARNRAYYRYEGGMDYWGQGTSVTVSS VL: DIKMTQSPSSMYASLGERVTITCKASQDINTYLNWFQQKPGKSPMTLIYRADRLLDGVPSRFSGSGSGQDYSLTISSLEDEDMGIYYCQQYDDFPLTFGAGTKLELK	binding result	no binding
A1D5 (antibody, V domains shown, Murine monoclonal antibody, kappa light chain; also called mAb A1D5) VH: EVQLQQSGPELVKPGASVKISCKASGYSFTGYFMNWMRQSHGKSLEWIGRINPYNGDSFYNQKFKDKATLTVDKSSTTAHMELLSLTSEDSAVYYCGRGYDAMDYWGQGTSVTVSS VL: DIQMTQTTSSLSASLGDRVTISCRASQDISNFLTWYQQKPDGTVKLLIYYTSKLHSGVPSRFSGSGSGTDYSLTISNLEPGDIATYYCQQVSKFPWTFGGGAKLEIK	binding result	no binding
